methodSummary: viability loss in pontine glioma line – cell-based, JHH-DIPG-1, MIPE4.0, CellTiter-Glo, qHTS, dose response (AID 1347062);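 for AC50: cells exposed to compound for two days before readout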
condition: JHH-DIPG-1 viability, CellTiter-Glo ATP luminescence
Results filed as inconclusive are left out. Calls of active or inactive are those of the source. No cut-off is given here; in the data, nearly all actives have AC50 up to about 27 µM.
Pick one and only one: true (1) (active), false (0) (inactive)

compound	classification
CC(C)c1ccc(Cn2ccc3c4c(N)nc(NC5CC5)nc4ccc32)cc1	true (1)

Task item: What did this assay record as the result for COc1ccc2c3n(c(=NC(=O)c4cccnc4)nc2c1OC)CCN3 ?
Reply: true (1)

Task item: Per the records of this test, what outcome belongs to CC(/C=C1\SC(=S)N(CC(=O)O)C1=O)=C\c1ccccc1 ?
Reply: false (0)

Task item: What classification did CCC(C)CCCCC(=O)N[C@@H](CCN)C(=O)NC(C(=O)N[C@H](CCN)C(=O)N[C@@H]1CCNC(=O)C([C@@H](C)O)NC(=O)[C@@H](CCN)NC(=O)[C@@H](CCN)NC(=O)[C@@H](CC(C)C)NC(=O)[C@H](Cc2ccccc2)NC(=O)[C@H](CCN)NC1=O)[C@@H](C)O (some centres not stated) end up with in this test?
Reply: false (0)
